# targetSystem: RORγt (Homo sapiens)
# Sequence (P51449 1-497 isoform P51449-2, species assumed): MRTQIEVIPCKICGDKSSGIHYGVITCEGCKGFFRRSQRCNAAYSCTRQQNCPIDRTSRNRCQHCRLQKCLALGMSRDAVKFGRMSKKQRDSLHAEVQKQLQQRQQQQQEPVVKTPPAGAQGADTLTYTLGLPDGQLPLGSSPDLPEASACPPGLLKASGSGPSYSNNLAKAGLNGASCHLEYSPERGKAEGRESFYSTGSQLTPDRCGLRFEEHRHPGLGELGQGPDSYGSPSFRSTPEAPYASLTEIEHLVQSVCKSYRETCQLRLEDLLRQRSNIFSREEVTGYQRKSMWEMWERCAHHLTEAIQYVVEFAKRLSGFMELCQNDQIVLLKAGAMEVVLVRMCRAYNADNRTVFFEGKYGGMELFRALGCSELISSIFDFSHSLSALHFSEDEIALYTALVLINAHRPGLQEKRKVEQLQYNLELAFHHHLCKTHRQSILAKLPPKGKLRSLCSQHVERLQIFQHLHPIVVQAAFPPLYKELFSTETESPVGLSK
# protocolDescription: Cofactor recruitment test (Alpha Screen, biotinylated SRC-1 peptide)
# Type: biochemical
# measurementParameters: read-out: Signal value inhibitory rate at test compound 1 μM (%)
# inhibition at 1 µM per entry

molecule | unitAbbrev | inhibition at 1 µM
COCc1ccc2c(c1)CCN(C(=O)Cc1cc(O)no1)[C@H]2C(=O)Nc1cc(F)c([Si](C)(C)C)c(F)c1 [Example 121] | % | 100
CCOCC(C)(C)c1c(F)cc(NC(=O)[C@H]2c3ccc(OCC)cc3CCN2C(=O)CCCC(=O)O)cc1F [Example 166] | % | 86
COCc1ccc2c(c1)CCN(C(=O)CCCC(=O)O)[C@H]2C(=O)Nc1cc(F)c(C(C)(C)C)c(F)c1 [Example 144] | % | 97
COc1ccc2c(n1)CCN(C(=O)Cc1cc(O)no1)[C@H]2C(=O)Nc1ccc([Si](C)(C)C)c(F)c1 [Example 80] | % | 97
COCc1ccc2c(n1)CCN(C(=O)c1cc(O)no1)[C@H]2C(=O)Nc1cc(F)c([Si](C)(C)C)c(F)c1 [Example 136] | % | 97
COCc1ccc2c(c1)CCN(C(=O)CCCC(=O)O)[C@H]2C(=O)Nc1cc(F)c([Si](C)(C)C)c(F)c1 [Example 130] | % | 100
COc1ccc2c(c1)CCN(C(=O)CCO)[C@H]2C(=O)Nc1ccc(C(C)(C)C)c(F)c1 [Example 30] | % | 82

###

# targetSystem: UniProtKB P51449
# protocolDescription: Jurkat reporter test (human IL-17 ROR response element luciferase, RORγt vector)
# Format: cell-based
# measurementParameters: test compound 3 μM, Jurkat cells; read-out: Luminescence level inhibitory rate at test compound 3 μM (%)
# inhibition at 3 µM per entry

compound | inhibition at 3 µM [%]
COc1ccc2c(c1)CCN(C(=O)Cc1cc(O)no1)[C@H]2C(=O)Nc1cc(F)c(C(C)(C)C)c(F)c1 [Example 43] | 101
COCC(C)(C)c1ccc(NC(=O)[C@H]2c3ccc(OC)cc3CCN2C(=O)c2cc(O)no2)cc1F [Example 69] | 100
CCOc1ccc2c(c1)CCN(C(=O)CCCC(=O)O)[C@H]2C(=O)Nc1cc(F)c(C(C)(C)COC)c(F)c1 [Example 164] | 101
CCOCC(C)(C)c1c(F)cc(NC(=O)[C@H]2c3ccc(OC)cc3CCN2C(=O)Cc2cc(O)no2)cc1F [Example 170] | 97
COc1ccc2c(n1)CCN(C(=O)Cc1cc(O)no1)C2C(=O)Nc1ccc(C(C)(C)C)c(F)c1 (stereo not shown) [Example 41] | 98.9
COc1ccc2c(c1)CCN(C(=O)c1cc(O)no1)[C@H]2C(=O)Nc1cc(F)c(C(C)(C)COCC2CC2)c(F)c1 [Example 158] | 93
COc1ccc2c(c1)CCN(C(=O)[C@@H]1CNC(=O)C1)[C@H]2C(=O)Nc1ccc(C(C)(C)C)c(F)c1 [Example 25] | 102
COCC(C)(C)c1ccc(NC(=O)[C@H]2c3ccc(OC)cc3CCN2C(=O)Cc2cc(O)no2)cc1F [Example 70] | 99
COc1ccc2c(c1)CCN(C(=O)CCO)[C@H]2C(=O)Nc1ccc(C(C)(C)C)c(F)c1 [Example 30] | 99.8
CCOCC(C)(C)c1c(F)cc(NC(=O)[C@H]2c3ccc(OCC)cc3CCN2C(=O)CCCC(=O)O)cc1F [Example 166] | 99
CCOc1ccc2c(c1)CCN(C(=O)CCCC(=O)O)[C@H]2C(=O)Nc1cc(F)c2c(c1)CCC2(C)C [Example 182] | 99
CCOc1ccc2c(c1)CCN(C(=O)Cc1cc(O)no1)C2C(=O)Nc1cc(F)c2c(c1)CCC2(C)C (stereo not shown) [Example 55] | 100
COc1ccc2c(c1)CCN(C(=O)CC#N)[C@H]2C(=O)Nc1cc(F)c(C(C)(C)C(=O)N2CCCC2)c(F)c1 [Example 103] | 102
CCOCC(C)(C)c1c(F)cc(NC(=O)[C@H]2c3ccc(OCC)cc3CCN2C(=O)c2cc(O)no2)cc1F [Example 167] | 97
COCc1ccc2c(c1)CCN(C(=O)c1cc(O)no1)[C@H]2C(=O)Nc1cc(F)c(C(C)(C)COC)c(F)c1 [Example 137] | 103
COc1ccc2c(c1)CCN(C(=O)c1cc(O)no1)C2C(=O)Nc1ccc(C(C)(C)C)c(Cl)c1 (stereo not shown) [Example 10] | 98.8

Data origin, for the record: patent US10053468B2
